Hello, the source for this data is patent US20190047966A1, in case you need it.

target_system: human histamine H4 receptor (Homo sapiens, UniProt Q9H3N8)
Construct: purchased PerkinElmer Inc; host or cells: CHO-K1
Sequence (Q9H3N8 whole entry): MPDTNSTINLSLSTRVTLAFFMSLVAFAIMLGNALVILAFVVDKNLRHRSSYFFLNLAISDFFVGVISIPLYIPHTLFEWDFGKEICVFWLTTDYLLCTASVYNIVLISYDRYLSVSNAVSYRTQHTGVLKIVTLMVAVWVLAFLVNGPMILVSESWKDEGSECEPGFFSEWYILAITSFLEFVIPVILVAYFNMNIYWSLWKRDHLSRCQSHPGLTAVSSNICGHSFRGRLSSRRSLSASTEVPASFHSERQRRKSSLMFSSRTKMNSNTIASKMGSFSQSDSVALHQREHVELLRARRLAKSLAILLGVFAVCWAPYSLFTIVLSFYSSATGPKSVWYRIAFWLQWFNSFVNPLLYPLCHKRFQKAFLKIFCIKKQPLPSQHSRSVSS
assay_info: Evaluation of Human H4 Receptor Affinity ([3H]histamine binding)
condition_label: inhibition constant Ki, CHO-K1 membrane preparation, read-out: Evaluation of H4 Receptor Affinity
Where a name gives a salt, the structure may show the parent alone.
experimental_endpoint: Ki

CC(C)(C(=O)O)[C@H]1C[C@H](OCCN2CCN(c3nc(N)nc4c3CCc3cc(OCc5ccc(Cl)cc5)ccc3-4)CC2)C1 | < 100 nM
Nc1nc2c(c(N3CCN(CCOCC4CC(C(=O)O)C4)CC3)n1)CCc1cc(OCc3ccc(Cl)cc3)ccc1-2 (stereo not shown) [Example 169] | 100 to 500 nM
CN1CCN(c2nc(N)nc3c2oc2ccc(OCc4ccccc4)cc23)CC1 | < 100 nM
CN[C@H]1CCN(c2nc(N)nc3c2CCc2cc(OCc4ccccc4)ccc2-3)C1 | < 100 nM
Nc1nc2c(c(N3CCN(CCOCCOCC(=O)O)CC3)n1)CCc1cc(OCc3ccc(OC(F)(F)F)cc3)ccc1-2 [Example 143, formate] | < 100 nM
Nc1nc2c(c(N3CCN(CCO[C@H]4C[C@H](C(N)=O)C4)CC3)n1)CCc1cc(OCc3ccc(OC(F)(F)F)cc3)ccc1-2 | < 100 nM
CN1CCN(c2nc(N)nc3c2CCc2cc(NS(=O)(=O)c4ccc(F)cc4)ccc2-3)CC1 | < 100 nM
CC1(COCCN2CCN(c3nc(N)nc4c3CCc3cc(OCc5ccc(Cl)cc5)ccc3-4)CC2)CCC(C(=O)O)CC1 (stereo not shown) | < 100 nM
CN1CCN(c2nc(N)nc3c2CCc2cc(OCc4ccc(Br)cc4)ccc2-3)CC1 | < 100 nM
CN1CCN(c2nc(N)nc3c2CCc2cc(NS(=O)(=O)c4ccc(OCC(F)(F)F)cc4)ccc2-3)CC1 | < 100 nM
CN1CCN(c2nc(N)nc3c2CCc2cc(NS(=O)(=O)c4ccc(C#N)cc4)ccc2-3)CC1 | 100 to 500 nM
Nc1nc2c(c(N3CCN(CCOCc4ccc(F)c(C(=O)O)c4)CC3)n1)CCc1cc(OCc3ccc(Cl)cc3)ccc1-2 | < 100 nM
Nc1nc2c(c(N3CCN(CCOC[C@H]4C[C@H](C(=O)O)O4)CC3)n1)CCc1cc(OCc3ccc(OC(F)(F)F)cc3)ccc1-2 (relative stereo) | 100 to 500 nM
Nc1nc2c(c(N3CCN(CCOC[C@H]4CC[C@H](C(=O)O)CC4)CC3)n1)CCc1cc(OCc3ccc(OC(F)(F)F)cc3)ccc1-2 | < 100 nM
COc1ccc(S(=O)(=O)Nc2ccc3c(c2)CCc2c-3nc(N)nc2N2CCN(C)CC2)cc1 | 100 to 500 nM
CN1CCN(c2nc(N)nc3c2Cc2ccc(OCc4ccccc4)cc2-3)CC1 | < 100 nM
COC(=O)C1CN(C(=O)OCCN2CCN(c3nc(N)nc4c3CCc3cc(OCc5ccc(Cl)cc5)ccc3-4)CC2)C1 | 100 to 500 nM
COC(=O)c1ccc(COCCN2CCN(c3nc(N)nc4c3CCc3cc(OCc5ccc(Cl)cc5)ccc3-4)CC2)o1 | < 100 nM
Nc1nc2c(c(N3CCN(CCOCc4nc(C(=O)O)cs4)CC3)n1)CCc1cc(OCc3ccc(Cl)cc3)ccc1-2 [135(b), dihydrochloride] | < 100 nM
CCC(OCCOCCN1CCN(c2nc(N)nc3c2CCc2cc(OCc4ccc(Cl)cc4)ccc2-3)CC1)C(=O)O (stereo not shown) | < 100 nM
Nc1nc2c(c(N3CCN(CCO[C@@H]4C[C@@H]5[C@H](C4)[C@H]5C(=O)O)CC3)n1)CCc1cc(OCc3ccc(OC(F)(F)F)cc3)ccc1-2 | < 100 nM
Nc1nc2c(c(N3CCN(CCOCc4ccc(C(=O)O)o4)CC3)n1)CCc1cc(OCc3ccc(OC(F)(F)F)cc3)ccc1-2 | < 100 nM
Nc1nc2c(c(N3CCN(CCOc4ccc(CC(=O)O)cc4)CC3)n1)CCc1cc(OCc3ccc(Cl)cc3)ccc1-2 [Example 137, dihydrochloride] | < 100 nM
Nc1nc2c(c(N3CCNCC3)n1)CCc1cc(OCc3ccc(OC(F)(F)F)cc3)ccc1-2 | < 100 nM
CN1CCN(c2nc(N)nc3c2CCc2cc(OCc4ccc(OC(F)(F)F)cc4)ccc2-3)CC1 | < 100 nM
CS(=O)(=O)NC(=O)COCCOCCN1CCN(c2nc(N)nc3c2CCc2cc(OCc4ccc(Cl)cc4)ccc2-3)CC1 | 100 to 500 nM
COC(=O)C1CN(C(=O)CCCN2CCN(c3nc(N)nc4c3CCc3cc(OCc5ccc(Cl)cc5)ccc3-4)CC2)C1 | < 100 nM
CC1(C(=O)O)CCC(COCCN2CCN(c3nc(N)nc4c3CCc3cc(OCc5ccc(Cl)cc5)ccc3-4)CC2)CC1 (stereo not shown) | < 100 nM
